- System: K-562 leukemia
- Experiment: NCI-60 one-dose screen, 48 h
- Reported Conditions: 10 µM unless noted
Compounds without any hit were thinned out: in the full panel of roughly 83,000, 20% have a hit. Calls of active or inactive are those of the source. The calls were made as follows: active = growth percent below 10; inactive = the rest.
Pick one and only one: Y (active), N (inactive)

Check the results log: what was the call for COc1cc(OC)c2sc(-c3ccc(-n4cncc4-c4cc(OC)c(OC)c(OC)c4)cc3)nc2c1 ?
N

Check the results log: what was the call for C=CCn1c(SCC(=O)Nc2ccc(/C(C)=N/O)cc2)nnc1-c1cc(-c2ccc(S(N)(=O)=O)cc2)nc2ccccc12 ?
N

Check the results log: what was the call for COc1ccc(/C=C(/c2ccccc2)[N+](=O)[O-])c(OC)c1 ?
Y

Check the results log: what was the call for CCOC(=O)C1=C(C)C(Cl)=N/C1=C\c1[nH]c(Cl)c(C)c1C(=O)OCC ?
N

Check the results log: what was the call for COc1ccc(C(=S)N2CCN(c3ccc(Cl)cc3)CC2)cc1 ?
N

----------
Field: growth. Provide a value for each of the molecules that follow.
- Test system: BT-549 breast
- Experiment: NCI-60 one-dose screen, 48 h (100 = growth as untreated, 0 = no growth, -100 = all killed)
- Reported Conditions: 10 µM unless noted
About 83,000 compounds went through this panel and 20% of them were active in at least one assay; those are over-represented in the sample as a whole. The source made the active and inactive calls. How the source made its calls: active means growth percent below 10; inactive means the rest.

Consider the molecule CC/C(Cc1ccccc1)=C(\c1ccc(OCCCN(C)C)cc1)c1ccc(OC(=O)NCc2ccccc2)cc1 and give its measured growth.
95% (inactive)

Consider the molecule N#C/C(=C\c1ccc(-c2cccc(C(F)(F)F)c2)o1)c1ccccc1 and give its measured growth.
96.6% (inactive)

Consider the molecule COc1cccc(/C=N/NC(=O)c2ccccc2N2CCCC2)c1O and give its measured growth.
17.8% (inactive)

Consider the molecule COC(=O)c1c2c(n3ccccc13)C(=O)c1ccccc1C2=O and give its measured growth.
68.1% (inactive)

Consider the molecule CCN(CC)CCCOc1ccc2ncnc(Nc3ccc(Oc4cccc(C(F)(F)F)c4)c(Cl)c3)c2c1 and give its measured growth.
81.4% (inactive)

Consider the molecule [2H]C([2H])([2H])Oc1ccc(F)cc1/C=C/C(=O)/C=C(O)/C=C/c1cc(F)ccc1OC([2H])([2H])[2H] and give its measured growth.
93.3% (inactive)

Consider the molecule Cc1ccc(S(=O)(=O)OCCCOS(=O)(=O)c2ccc(C)cc2)cc1 and give its measured growth.
96.2% (inactive)

Consider the molecule CN(C)c1ccc(/C=C(\C#N)c2cc3ccccc3[nH]2)cc1 and give its measured growth.
42.4% (inactive)

Consider the molecule CCOc1cccc(/C=N/NC(=O)c2cccc(Nc3ccnc(C(F)(F)F)c3)c2)c1O and give its measured growth.
48.5% (inactive)

Consider the molecule C=C1CC[C@@H]2[C@](C)(COC(C)=O)[C@H](OC(C)=O)CC[C@@]2(C)[C@@H]1CC(Nc1ccc(S(=O)(=O)NC(C)=O)cc1)C1=CCOC1=O (some centres not stated) and give its measured growth.
-62.6% (active)

Consider the molecule Nc1[nH]n2cc(-c3ccc(F)cc3)nc2c1N=Nc1ccc(S(N)(=O)=O)cc1 and give its measured growth.
73.9% (inactive)

Consider the molecule C#CCO[C@H]1CC(CC#C)(CC#C)C(=O)[C@@H]2[C@H]1[C@H]1C[C@@H]3[C@@]4(C)CCC[C@@](C)(C(=O)OC)[C@@H]4CC[C@@]23C=C1C(C)C and give its measured growth.
101% (inactive)

Consider the molecule Cc1nc2cc(O)c(O)cc2cc1Oc1ccc(NC(=O)Nc2ccc(Cl)c(Cl)c2)cc1 and give its measured growth.
82.2% (inactive)

Consider the molecule CN1CCN(Cc2ccc(NC(=O)c3cncc(C#Cc4cnc(N)c5ccc(F)cc45)c3)cc2C(F)(F)F)CC1 and give its measured growth.
42% (inactive)

Consider the molecule C=CCN1C(=O)c2cccc3c(N4CCOCC4)ccc(c23)C1=O and give its measured growth.
-47.8% (active)

Consider the molecule C#CC#CC#CC#CC#CC#CC#CC#CC[C@@H]1OC[C@@H](COC(=O)O[C@@H](C(=O)O[C@H]2C[C@@]3(O)[C@@H](OC(=O)c4ccccc4)[C@@H]4[C@]5(OC(C)=O)CO[C@@H]5C[C@H](O)[C@@]4(C)C(=O)[C@H](OC(C)=O)C(=C2C)C3(C)C)[C@@H](NC(=O)c2ccccc2)c2ccccc2)O1 and give its measured growth.
17% (inactive)

Consider the molecule CSC(SC)=C(C#N)c1nc2ccccc2s1 and give its measured growth.
13.1% (inactive)

----------
- System: M14 melanoma
- Experiment: NCI-60 one-dose screen, 48 h (100 = growth as untreated, 0 = no growth, -100 = all killed)
- Reported Conditions: 10 µM unless noted
This is part of a sample that, as a whole, favours compounds with a hit. Of some 83,000 tested, about 20% had one in any assay.
Readout Name: growth (%)
Numbers only; they are read as %.

Consider the molecule CCOC(=O)c1nn(CC(O)c2ccccc2)c(NC(=O)Nc2cccc(F)c2)c1C (stereo not given) and give its measured growth.
103

Consider the molecule O=c1c2ccccc2c(=O)c2c1sc1c(=O)c3ccc(O)cc3c(=O)c12 and give its measured growth.
-87.5

Consider the molecule Cc1ccc(C(=O)c2ccc(CC(=O)N=Nc3c(O)[nH]c4ccc(Br)cc34)n2C)cc1 and give its measured growth.
91.3

Consider the molecule Cc1ccc(/C=C/C(=O)c2cccc(OCCCOc3cccc(C(=O)/C=C/c4ccc(C)cc4)c3)c2)cc1 and give its measured growth.
73.4

Consider the molecule CCCC(CC)(C(=O)Nc1ccc2nc(C)cc(N)c2c1)C(=O)Nc1ccc2nc(C)cc(N)c2c1 and give its measured growth.
96.6

----------
- Test system: RPMI-8226 leukemia
- Experiment: NCI-60 one-dose screen, 48 h
- Reported Conditions: 10 µM unless noted
This is part of a sample that, as a whole, favours compounds with a hit. Of some 83,000 tested, about 20% had one in any assay. Calls of active or inactive are those of the source. The calls were made as follows: active = growth percent below 10; inactive = the rest.
Pick one and only one: active, inactive

Check the results log: what was the call for CCCC(CC)(C(=O)Nc1ccc2nc(C)cc(N)c2c1)C(=O)Nc1ccc2nc(C)cc(N)c2c1 ?
inactive

Check the results log: what was the call for COc1cccc(CCNc2ncnc3c2ncn3Cc2nnc3c4ccccc4c(Cl)nn23)c1 ?
inactive

Check the results log: what was the call for Nc1ccc(-c2csc(-n3[nH]c(=O)ccc3=O)n2)cc1 ?
inactive

Check the results log: what was the call for O=C1Nc2ccccc2/C1=C\c1c[nH]c2ccc(Br)cc12 ?
inactive

Check the results log: what was the call for Nc1nc2c(c3ncccc13)C(c1cccc(Cl)c1)Cc1ncccc1-2 (stereo not given) ?
inactive

Check the results log: what was the call for CN1CCN(Cc2ccc(NC(=O)c3cncc(C#Cc4cnc5ccc(Cl)nn45)c3)cc2C(F)(F)F)CC1 ?
active

Check the results log: what was the call for CC1=C(C(=O)Nc2nc(-c3ccc(Cl)cc3)cs2)[C@H](c2ccc(O)cc2)NC(=O)N1 ?
inactive

Check the results log: what was the call for COc1ccc(C(=O)c2cc3c(N)c(C(=O)Nc4ccccc4)sc3nc2C)cc1 ?
inactive

Check the results log: what was the call for Cc1ccc(S(=O)(=O)N2CCC(=O)c3ccccc32)cc1 ?
inactive

Check the results log: what was the call for CN1CCN(CCCOc2cccc3nc(Nc4ccc(F)c(F)c4)ccc23)CC1 ?
active

----------
- Tested on: EKVX NSCLC
- Experiment: NCI-60 one-dose screen, 48 h (100 = growth as untreated, 0 = no growth, -100 = all killed)
- Reported Conditions: 10 µM unless noted
- Description: Growth inhibition of the EKVX human Non-Small Cell Lung tumor cell line is measured as a screen for anti-cancer activity. Cells are grown in 96 well plates and exposed to the test compound for 48 hours. Compounds are tested at a single concentration, which is 10^-5 M for most compounds. The reported endpoint is percent growth (GI% or GIPRCNT), where numbers from 0 - 100% represent growth inhibition, and numbers from -100% - 0 represent cell death. […]
About 83,000 compounds went through this panel and 20% of them were active in at least one assay; those are over-represented in the sample as a whole.
Readout Name: growth (%)
Numbers only; they are read as %.

Consider the molecule CCCCNc1cc(-c2cn[nH]c2-c2cc(C)cc(OC)c2)nc(-c2cccnc2)n1 and give its measured growth.
88.3

Consider the molecule Cc1ccc(C)c(/C=C2\CN(C(=O)OC(C)(C)C)C/C(=C\c3cc(C)ccc3C)C2=O)c1 and give its measured growth.
82.8

Consider the molecule O=C1Nc2ccccc2/C1=C\c1c[nH]c2ccc(Br)cc12 and give its measured growth.
79.5

Consider the molecule COc1ccc(C(=O)/C=C/c2ccc(Cl)cc2)cc1S(=O)(=O)Nc1c(N)nc(SC)[nH]c1=O and give its measured growth.
85.2

Consider the molecule O=C1c2ccccc2C(=O)c2c1c(C(=O)NCc1ccccc1)c1ccccn21 and give its measured growth.
105

Consider the molecule C=C(C)[C@@H]1CCC[C@]2(C(=O)N3CCN(C)CC3)CC[C@]3(C)[C@@H](CC[C@@H]4[C@@]5(C)CC/C(=N\NC(=O)c6ccncc6)C(C)(C)[C@@H]5CC[C@]43C)[C@@H]12 and give its measured growth.
111

Consider the molecule CCOC(=O)c1cnc2c(N=Nc3ccc(OC)cc3)c(N)nn2c1N and give its measured growth.
103

Consider the molecule CN1CCN(Cc2ccc(NC(=O)c3cncc(C#Cc4cnc(N)c5ccc(F)cc45)c3)cc2C(F)(F)F)CC1 and give its measured growth.
42

Consider the molecule CN(C)CCN1C(=O)c2cccc3c(/C=C/CN4C(=O)c5cccc6cccc(c56)C4=O)ccc(c23)C1=O and give its measured growth.
109

Consider the molecule NC(=O)c1c(NC(=O)c2cccc(C(F)(F)F)c2)sc2c1CCC(=O)C2 and give its measured growth.
9.15

Consider the molecule O=C(/C=C/c1cccc(Cl)c1Cl)Nc1ncc(Cc2ccccc2Cl)s1 and give its measured growth.
55.7

Consider the molecule COc1ccc(C(=O)Cn2c(C(=O)c3ccc(Cl)cc3)nc3ccccc32)cc1 and give its measured growth.
90.9

Consider the molecule COc1cc2nc3sc(C(=O)Nc4ccc(C(=O)OC(C)C)cc4)c(C(=O)Nc4ccc(Cl)cc4C)n3c(=O)c2cc1OC and give its measured growth.
77.2

Consider the molecule C=CCN1C(=O)c2cccc3c(N4CCOCC4)ccc(c23)C1=O and give its measured growth.
-7.17

Consider the molecule CCN1C(=O)N(CC)C2C1NN=c1s/c(=C3\C(=O)N(CCC(C)C)c4ccccc43)c(=O)n12 (stereo not drawn) and give its measured growth.
48.2

Consider the molecule Cc1c(CC(=S)N2CCOCC2)nnn1-c1cccc(C(F)(F)F)c1 and give its measured growth.
104

Consider the molecule O=C1C(Nc2ccccn2)=C(I)C(=O)c2ncccc21 and give its measured growth.
-7.46

Consider the molecule Cn1cc(-c2csc(-c3c[nH]c4ccc(F)cc34)n2)c2ccnc(Cl)c21 and give its measured growth.
65.6

Consider the molecule O=C1/C(=C2\SC(=S)N(C3CC3)C2=O)SC(=S)N1C1CC1 and give its measured growth.
95.9

Consider the molecule COc1ccc(C(=O)c2cc3c(N)c(C(=O)Nc4ccccc4)sc3nc2C)cc1 and give its measured growth.
50.4

Consider the molecule COc1cc(C(=O)n2nc(N3CCOCC3)c3cc(-n4cccc4)ccc32)cc(OC)c1OC and give its measured growth.
60.6

Consider the molecule CC(=O)OC(c1ccccc1)C1CCOC1=O (stereo not drawn) and give its measured growth.
78.8

Consider the molecule CCCn1nc(C(=O)N(C)Cc2ccccc2)c2c1CCC(N1CCc3ccccc31)C2 (stereo not drawn) and give its measured growth.
95.2

Consider the molecule Nc1[nH]n2cc(-c3ccc(F)cc3)nc2c1N=Nc1ccc(S(N)(=O)=O)cc1 and give its measured growth.
108

Consider the molecule CN(Cc1ccccc1)c1nc(Cl)c(C2CC(c3ccccc3)=NN2c2ccccc2)s1 (stereo not drawn) and give its measured growth.
85.3

Consider the molecule O=C(Cc1ccc(/C=C/C(=O)c2ncc[nH]2)cc1)Nc1cc(C(F)(F)F)cc(C(F)(F)F)c1 and give its measured growth.
108

Consider the molecule Cc1ccc(N2C(=O)CCC2=O)cc1 and give its measured growth.
95.1

Consider the molecule COC(=O)c1c2c(c(C)[n+]([O-])c1C)C(=O)C(NCc1ccc(OC)cc1)=CC2=O and give its measured growth.
55

Consider the molecule C=C1C(=O)O[C@H]2[C@H]1CC/C(COC(=O)/C=C/C(=O)OC/C1=C/CC[C@@]3(C)O[C@H]3[C@H]3OC(=O)C(=C)[C@@H]3CC1)=C\CC[C@@]1(C)O[C@@H]21 and give its measured growth.
88.2

Consider the molecule O=c1cc(-c2ccccc2)[nH]c2ncc(-c3ccc(F)cc3)n12 and give its measured growth.
87.8

Consider the molecule Nc1nc(N)c(N=Nc2ccccc2)c(-c2ccccc2)n1 and give its measured growth.
51.3

Consider the molecule CCN1C(=O)N(CC)C2C1NN=c1s/c(=C\c3ccc[nH]3)c(=O)n12 (stereo not drawn) and give its measured growth.
47.4

Consider the molecule COc1ccc2c(c1)c(-c1nc(-c3c[nH]c4ncccc34)cs1)cn2CCO and give its measured growth.
34.9

Consider the molecule COc1ccc2c(c1)c(-c1nc(-c3c[nH]c4ncccc34)cs1)cn2CCCN1CCOCC1 and give its measured growth.
57.8

Consider the molecule COc1ccc(Nc2ncccc2/C=C/C(=O)c2cc(OC)c(OC)c(OC)c2)cc1 and give its measured growth.
60.8

Consider the molecule COc1cc(/C=C2\CN(S(=O)(=O)c3ccccc3)C/C(=C\c3cc(CN4CCCCC4)c(O)c(OC)c3)C2=O)cc(CN2CCCCC2)c1O and give its measured growth.
-36.4

Consider the molecule CCOC(=O)c1nn(CC(O)c2ccccc2)c(NC(=O)Nc2cccc(F)c2)c1C (stereo not drawn) and give its measured growth.
101

Consider the molecule Clc1c(Cl)[n+](Cc2ccc3ccccc3c2)cn1Cc1ccc2ccccc2c1 and give its measured growth.
38.7

Just for reference, PubChem BioAssay (NCI) is where these values come from.
